B1: library; numbered along this chain (parent)
chain: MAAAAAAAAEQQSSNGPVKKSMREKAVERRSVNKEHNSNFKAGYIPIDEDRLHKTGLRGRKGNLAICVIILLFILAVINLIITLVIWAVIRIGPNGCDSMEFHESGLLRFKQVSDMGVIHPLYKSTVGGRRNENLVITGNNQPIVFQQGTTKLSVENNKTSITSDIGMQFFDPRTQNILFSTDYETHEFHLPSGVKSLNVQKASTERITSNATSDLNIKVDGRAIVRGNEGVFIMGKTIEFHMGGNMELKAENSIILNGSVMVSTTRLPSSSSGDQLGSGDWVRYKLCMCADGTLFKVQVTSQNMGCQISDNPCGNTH

- Variants of: B1
- Assay Procedure: SGCB cell-surface expression functional score (HA stain, bin4 vs bin1, normalised to synonymous) (log10 ratio); higher = more cell-surface SGCB (functional)
Response key: fulfilled means SGCB cell-surface expression functional score (log10) >= -0.2; not fulfilled means SGCB cell-surface expression functional score (log10) < -0.2.

Variant Description	Label Class
L52Y	fulfilled
K111I	not fulfilled
D215N	fulfilled
L108P	not fulfilled
P192E	not fulfilled
E230W	fulfilled
Q112G	not fulfilled
A5L	fulfilled
A5Q	fulfilled
T163C	not fulfilled
E10G	fulfilled
A88N	not fulfilled
F110W	not fulfilled
I90Y	not fulfilled
G194L	not fulfilled
L198W	not fulfilled
N79L	fulfilled
P269V	fulfilled
R207W	fulfilled
A7N	fulfilled
A65H	fulfilled
I255P	not fulfilled
N33K	fulfilled
H120R	fulfilled
N316P	fulfilled
N211V	not fulfilled
M116H	not fulfilled
M247Q	fulfilled
K25R	fulfilled
G43L	not fulfilled
R131E	fulfilled
Y285C	not fulfilled
Y184G	not fulfilled
M289F	not fulfilled
E248Y	fulfilled
G16H	fulfilled
E185K	fulfilled
P46Q	fulfilled
K25W	not fulfilled
A291I	not fulfilled
M22T	fulfilled
K196T	not fulfilled
V113L	fulfilled
A42D	not fulfilled
I137M	fulfilled
Q308N	not fulfilled
N199L	fulfilled
N158M	fulfilled
S99V	fulfilled
A291G	fulfilled
Q303P	fulfilled
N316D	fulfilled
D115F	not fulfilled
N157L	fulfilled
I81T	not fulfilled
T163G	not fulfilled
A4V	fulfilled
F189M	not fulfilled
D183F	not fulfilled
